Test system: HIV-1 strain NL4-3
METHOD SUMMARY: Anti-HIV-1 luciferase indicator assay in MT2 cells, NL4-3
Type: cell-based
DETAILS: MT2 cells, viral strain NL4-3
ENDPOINT LABEL: TI / Safety Index (CC50/IC50)

1) C=C(C)[C@@H]1CC[C@]2(C(=O)N[C@@H]3C=C[C@H](CN4CCOCC4)C3)CC[C@]3(C)[C@H](CC[C@@H]4[C@@]5(C)CC[C@H](OC(=O)CC(C)(C)C(=O)O)C(C)(C)[C@@H]5CC[C@]43C)[C@@H]12    5000
2) C=C(C)[C@@H]1CC[C@]2(C(=O)N[C@@H]3CC[C@H](CN4CCC(Cc5ccccc5)CC4)C3)CC[C@]3(C)[C@H](CC[C@@H]4[C@@]5(C)CC[C@H](OC(=O)CC(C)(C)CC(=O)O)C(C)(C)[C@@H]5CC[C@]43C)[C@@H]12    173
3) C=C(C)[C@@H]1CC[C@]2(C(=O)N[C@@H]3C[C@H](C(=O)N4CCCC4)C3(C)C)CC[C@]3(C)[C@H](CC[C@@H]4[C@@]5(C)CC[C@H](OC(=O)CC(C)(C)C(=O)O)C(C)(C)[C@@H]5CC[C@]43C)[C@@H]12    1177
4) C=C(C)[C@@H]1CC[C@]2(C(=O)N[C@H]3C[C@@H](C(=O)N4CCCCC4)C3(C)C)CC[C@]3(C)[C@H](CC[C@@H]4[C@@]5(C)CC[C@H](OC(=O)CC(C)(C)C(=O)O)C(C)(C)[C@@H]5CC[C@]43C)[C@@H]12    316
5) C=C(C)[C@@H]1CC[C@]2(C(=O)N3CCN(CC)CC3)CC[C@]3(C)[C@H](CC[C@@H]4[C@@]5(C)CC[C@H](OC(=O)C6CC(C(=O)O)C6(C)C)C(C)(C)[C@@H]5CC[C@]43C)[C@@H]12 (some centres unmarked)    1538
6) C=C(C)[C@@H]1CC[C@]2(C(=O)O)CC[C@]3(C)[C@H](CC[C@@H]4[C@@]5(C)CC[C@H](OC(=O)[C@@H]6C[C@H](C(=O)O)C6(C)C)C(C)(C)[C@@H]5CC[C@]43C)[C@@H]12    91
7) C=C(C)[C@@H]1CC[C@]2(C(=O)N[C@H]3C[C@@H](C(=O)N4CCOCC4)C3(C)C)CC[C@]3(C)[C@H](CC[C@@H]4[C@@]5(C)CC[C@H](O)C(C)(C)[C@@H]5CC[C@]43C)[C@@H]12    9
8) C=C(C)[C@@H]1CC[C@]2(C(=O)N[C@H]3C[C@@H](C(=O)N4CCCCC4)C3(C)C)CC[C@]3(C)[C@H](CC[C@@H]4[C@@]5(C)CC[C@H](O)C(C)(C)[C@@H]5CC[C@]43C)[C@@H]12    4.7

---

METHOD SUMMARY: in vitro
Format: cell-based
DETAILS: human, CC50
ENDPOINT LABEL: CC50 (µM)

1) C=C(C)[C@@H]1CC[C@]2(C(=O)O)CC[C@]3(C)[C@H](CC[C@@H]4[C@@]5(C)CC[C@H](OC(=O)[C@H]6C[C@@H](C(=O)O)C6(C)C)C(C)(C)[C@@H]5CC[C@]43C)[C@@H]12    20
2) C=C(C)[C@@H]1CC[C@]2(C(=O)N[C@@H]3CC[C@H](CN4CCC(Cc5ccccc5)CC4)C3)CC[C@]3(C)[C@H](CC[C@@H]4[C@@]5(C)CC[C@H](OC(=O)CCCC(=O)O)C(C)(C)[C@@H]5CC[C@]43C)[C@@H]12    20
3) C=C(C)[C@@H]1CC[C@]2(C(=O)N[C@@H]3CC[C@H](CN4CCC(Cc5ccccc5)CC4)C3)CC[C@]3(C)[C@H](CC[C@@H]4[C@@]5(C)CC[C@H](OC(=O)CC(C)(C)CC(=O)O)C(C)(C)[C@@H]5CC[C@]43C)[C@@H]12    4

---

Test system: HIV-1 strain IIIB
METHOD SUMMARY: Anti-HIV-1 luciferase indicator assay in MT2 cells, IIIB
Assay type: cell-based
DETAILS: MT2 cells, viral strain II B
Each entry gets 0 (no) if its TI / Safety Index (CC50/IC50) stays under 6, and 1 (yes) if its TI / Safety Index (CC50/IC50) is 6 or above.

1. C=C(C)[C@@H]1CC[C@]2(C(=O)N[C@@H]3CC[C@H](CN4CCC(Cc5ccccc5)CC4)C3)CC[C@]3(C)[C@H](CC[C@@H]4[C@@]5(C)CC[C@H](OC(=O)CCCC(=O)O)C(C)(C)[C@@H]5CC[C@]43C)[C@@H]12 [Example 33]    0 (no)
2. C=C(C)[C@@H]1CC[C@]2(C(=O)N[C@H]3C[C@@H](C(=O)N4CCCCC4)C3(C)C)CC[C@]3(C)[C@H](CC[C@@H]4[C@@]5(C)CC[C@H](OC(=O)CC(C)(C)C(=O)O)C(C)(C)[C@@H]5CC[C@]43C)[C@@H]12 [Example 12]    1 (yes)
3. C=C(C)[C@@H]1CC[C@]2(C(=O)N3CCC(Cc4ccccc4)(C(=O)OCC)CC3)CC[C@]3(C)[C@H](CC[C@@H]4[C@@]5(C)CC[C@H](OC(=O)CC(C)(C)C(=O)O)C(C)(C)[C@@H]5CC[C@]43C)[C@@H]12 [Example 57]    1 (yes)
4. C=C(C)[C@@H]1CC[C@]2(C(=O)N3CCN(CC)CC3)CC[C@]3(C)[C@H](CC[C@@H]4[C@@]5(C)CC[C@H](OC(=O)C6CC(C(=O)O)C6(C)C)C(C)(C)[C@@H]5CC[C@]43C)[C@@H]12 (some centres unmarked) [Example 54]    1 (yes)
5. C=C(C)[C@@H]1CC[C@]2(C(=O)N[C@H]3C[C@@H](C(=O)N4CCCCC4)C3(C)C)CC[C@]3(C)[C@H](CC[C@@H]4[C@@]5(C)CC[C@H](O)C(C)(C)[C@@H]5CC[C@]43C)[C@@H]12 [Example 11]    0 (no)
6. C=C(C)[C@@H]1CC[C@]2(C(=O)O)CC[C@]3(C)[C@H](CC[C@@H]4[C@@]5(C)CC[C@H](OC(=O)[C@@H]6C[C@H](C(=O)O)C6(C)C)C(C)(C)[C@@H]5CC[C@]43C)[C@@H]12 [Example 4]    1 (yes)
7. C=C(C)[C@@H]1CC[C@]2(C(=O)N[C@@H]3CC[C@H](CN4CCC(Cc5ccccc5)CC4)C3)CC[C@]3(C)[C@H](CC[C@@H]4[C@@]5(C)CC[C@H](OC(=O)CC(C)(C)CC(=O)O)C(C)(C)[C@@H]5CC[C@]43C)[C@@H]12 [Example 94]    1 (yes)

---

Tested on: HIV-1 strain IIIB
METHOD SUMMARY: Anti-HIV-1 luciferase indicator assay in MT2 cells, IIIB
Format: cell-based
DETAILS: MT2 cells, viral strain II B
ENDPOINT LABEL: TI / Safety Index (CC50/IC50)

1. C=C(C)[C@@H]1CC[C@]2(C(=O)N[C@H]3C[C@@H](C(=O)N4CCOCC4)C3(C)C)CC[C@]3(C)[C@H](CC[C@@H]4[C@@]5(C)CC[C@H](OC(=O)CC(C)(C)C(=O)O)C(C)(C)[C@@H]5CC[C@]43C)[C@@H]12 [Example 9]    2658
2. C=C(C)[C@@H]1CC[C@]2(C(=O)O)CC[C@]3(C)[C@H](CC[C@@H]4[C@@]5(C)CC[C@H](OC(=O)[C@H]6C[C@@H](C(=O)O)C6(C)C)C(C)(C)[C@@H]5CC[C@]43C)[C@@H]12 [Example 19]    952
3. C=C(C)[C@@H]1CC[C@]2(C(=O)N3CCC(CC)(C(=O)OCC)CC3)CC[C@]3(C)[C@H](CC[C@@H]4[C@@]5(C)CC[C@H](OC(=O)CC(C)(C)C(=O)O)C(C)(C)[C@@H]5CC[C@]43C)[C@@H]12 [Example 74]    90
4. C=C(C)[C@@H]1CC[C@]2(C(=O)N[C@@H]3CC[C@H](CN4CCN(CC)CC4)C3)CC[C@]3(C)[C@H](CC[C@@H]4[C@@]5(C)CC[C@H](OC(=O)CC(C)(C)C(=O)O)C(C)(C)[C@@H]5CC[C@]43C)[C@@H]12 [Example 36]    5000
5. C=C(C)[C@@H]1CC[C@]2(C(=O)N[C@@H]3C[C@H](C(=O)N4CCCC4)C3(C)C)CC[C@]3(C)[C@H](CC[C@@H]4[C@@]5(C)CC[C@H](OC(=O)CC(C)(C)C(=O)O)C(C)(C)[C@@H]5CC[C@]43C)[C@@H]12 [Example 45]    800
6. C=C(C)[C@@H]1CC[C@]2(C(=O)N[C@@H]3C=C[C@H](CN4CCOCC4)C3)CC[C@]3(C)[C@H](CC[C@@H]4[C@@]5(C)CC[C@H](OC(=O)CC(C)(C)C(=O)O)C(C)(C)[C@@H]5CC[C@]43C)[C@@H]12 [Example 95]    20000
